tested on: Porphyromonas gingivalis; assay: Inhibition of Porphyromonas gingivalis recombinant SerB653 phosphatase expressed in Escherichia coli BL21 using phosphoserine as substrate at 50 uM after 1 hr by malachite green colorimetric assay
result type: inhibition (%)

Completed entries (count: 7):
[[record]]
smiles_representation = "O=C(c1c(Nc2cc(Cl)cc(Cl)c2)[nH]c2c(Cl)ccc([N+](=O)[O-])c2c1=O)C1CC1"
result_type = "inhibition"
numeric_readout = 99.4

[[record]]
smiles_representation = "CC(=O)c1c(Nc2cccc(Cl)c2Cl)[nH]c2c(Cl)ccc([N+](=O)[O-])c2c1=O"
result_type = "inhibition"
numeric_readout = 96.7

[[record]]
smiles_representation = "CC(=O)c1c(Nc2cc(Cl)ccc2Cl)[nH]c2c(Cl)ccc(Cl)c2c1=O"
result_type = "inhibition"
numeric_readout = 86.6

[[record]]
smiles_representation = "O=C(c1c(Nc2cc(F)cc(F)c2)[nH]c2c(Cl)ccc([N+](=O)[O-])c2c1=O)C1CC1"
result_type = "inhibition"
numeric_readout = 96.2

[[record]]
smiles_representation = "CC(C)C(=O)c1c(Nc2cc(F)cc(F)c2)[nH]c2c(Cl)ccc([N+](=O)[O-])c2c1=O"
result_type = "inhibition"
numeric_readout = 94.7

[[record]]
smiles_representation = "CC(C)C(=O)c1c(Nc2ccc(Cl)cc2F)[nH]c2c(Cl)ccc([N+](=O)[O-])c2c1=O"
result_type = "inhibition"
numeric_readout = 94.3

[[record]]
smiles_representation = "CC(=O)c1c(Nc2cc(Cl)ccc2Cl)[nH]c2c(Cl)ccc([N+](=O)[O-])c2c1=O"
result_type = "inhibition"
numeric_readout = 98.3


1. CC(=O)c1c(Nc2cc(C(F)(F)F)cc(C(F)(F)F)c2)[nH]c2c(F)ccc(F)c2c1=O
2. CC(=O)c1c(Nc2cccc(F)c2C)[nH]c2c(F)ccc(F)c2c1=O
So which one has the bigger inhibition here, 1 or 2 ? Bench note: the answer is the label of the chosen record.
1

Source listed as ChEMBL document CHEMBL2010789.
